# Experimental Details: Toxicity liver stage against HepG2, at 10uM
# Assay type: cell-based
# Set-up: test concentration 10 uM, cell line HepG2-A16-CD81EGFP
# Details: human, HepG2-A16-CD81EGFP cells; read-out: INHIBITION
Known cytotoxicity at 10 µM of a selection of compounds
Reported Endpoint: cytotoxicity at 10 µM (%)

[[record]]
compound = "C=Cc1cccc(CN2CCCn3nc(CNS(C)(=O)=O)cc3C2)c1"
units_symbol = "%"
reported_measurement = 3.15

[[record]]
compound = "O=C(NCCn1ccnc1-c1cc2n(n1)CCCNC2)c1ccncc1"
units_symbol = "%"
reported_measurement = -1.84

[[record]]
compound = "Cc1ccccc1S(=O)(=O)Cc1nsc(N(C)C)n1"
units_symbol = "%"
reported_measurement = -4.45

[[record]]
compound = "COc1cc(CN2CC[C@@]3(CCCO3)[C@@H](O)C2)ccc1F"
units_symbol = "%"
reported_measurement = -3.14

[[record]]
compound = "CCCn1nnc(NCc2ccccc2OCc2ccc(Cl)cc2)n1"
units_symbol = "%"
reported_measurement = 2.76

[[record]]
compound = "Cc1cc(C(O)CCNC(=O)COc2ccccc2F)c(C)o1 (stereo unspecified)"
units_symbol = "%"
reported_measurement = 0.931


----------
Known cytotoxicity at 10 µM of a selection of molecules
# Experimental Details: Toxicity liver stage against HepG2, at 10uM
# Type: cell-based
# Design: test concentration 10 uM, cell line HepG2-A16-CD81EGFP
# Details: human, HepG2-A16-CD81EGFP cells; read-out: INHIBITION
Reported Endpoint: cytotoxicity at 10 µM (%)

[[record]]
molecule = "O=C(NCCn1cccc1)C1CCCOC1 (configuration not stated)"
reported_measurement = 3.03

[[record]]
molecule = "CCc1nc(C2CCCN2CCc2ccccn2)no1 (configuration not stated)"
reported_measurement = -7.03

[[record]]
molecule = "Cc1cccc(O[C@H]2COCCN(Cc3sc(C)nc3C)C2)n1"
reported_measurement = -1.5

[[record]]
molecule = "CCOCCCNC(=O)CN(c1ccc(C)c(C)c1)S(C)(=O)=O"
reported_measurement = 7.74

[[record]]
molecule = "NCC(=O)N1CCCC1c1ccc(C(=O)NCc2ccoc2)s1 (configuration not stated)"
reported_measurement = 1.68

[[record]]
molecule = "CN(C)CCN1CCC2(CCCN(C(=O)C3CCC3)C2)CC1"
reported_measurement = 4.38

[[record]]
molecule = "O=C(NCC1CCOC1)c1cc(-c2ccc(F)cc2)[nH]n1 (configuration not stated)"
reported_measurement = -6.96

[[record]]
molecule = "Cn1nc(Br)c2c(NCCS(N)(=O)=O)ncnc21"
reported_measurement = 15.8

[[record]]
molecule = "CCc1cccc(OC2CN(C(=O)[C@@H](N)[C@@H](C)O)C2)c1"
reported_measurement = -3.92

[[record]]
molecule = "O=C(c1ccc[nH]1)N1CCCn2cnc(COCC3CC3)c2C1"
reported_measurement = -73.6

[[record]]
molecule = "N#Cc1ccc(SCCC(=O)O)cc1"
reported_measurement = -2.85

[[record]]
molecule = "CC(C)Cc1ccc(C(=O)Cn2cnnc2[S+](C)[O-])cc1 (configuration not stated)"
reported_measurement = -7.08


----------
# Experimental Details: Toxicity liver stage against HepG2, at 10uM
# Format: cell-based
# Design: test concentration 10 uM, cell line HepG2-A16-CD81EGFP
# Details: human, HepG2-A16-CD81EGFP cells; read-out: INHIBITION
Known cytotoxicity at 10 µM of a selection of molecules
Reported Endpoint: cytotoxicity at 10 µM (%)

[[record]]
molecule = "Cc1nc(C2CCCN2C(=O)CCCn2cccn2)no1 (configuration not stated)"
reported_endpoint = "cytotoxicity at 10 µM"
reported_measurement = -4.77

[[record]]
molecule = "Cc1cc(-c2ccc(C(C)N3CCOCC3)cc2)cnc1N (configuration not stated)"
reported_endpoint = "cytotoxicity at 10 µM"
reported_measurement = -2.36

[[record]]
molecule = "COc1ccc(CCNc2cc(-c3nc(C)no3)ccn2)cc1OC"
reported_endpoint = "cytotoxicity at 10 µM"
reported_measurement = 3.39

[[record]]
molecule = "CCN(CCc1nc2cc(C)ccc2[nH]1)C(=O)[C@@H](N)Cc1c[nH]cn1"
reported_endpoint = "cytotoxicity at 10 µM"
reported_measurement = -3.78

[[record]]
molecule = "Cc1ccc(-c2cc(CNC(=O)NC3CCCCNC3=O)on2)cc1 (configuration not stated)"
reported_endpoint = "cytotoxicity at 10 µM"
reported_measurement = -145

[[record]]
molecule = "Cc1ccc(Oc2ncccc2C(=O)N(C)CC2OCCO2)c(C)c1"
reported_endpoint = "cytotoxicity at 10 µM"
reported_measurement = 3.54

[[record]]
molecule = "O=C(c1ccco1)N1C[C@H]2CCCN(CC3CC3)[C@H]2C1"
reported_endpoint = "cytotoxicity at 10 µM"
reported_measurement = 2.36

[[record]]
molecule = "O=S(=O)(CC1CCCCC1)NCc1ccnc(O)c1"
reported_endpoint = "cytotoxicity at 10 µM"
reported_measurement = 6.54

[[record]]
molecule = "Cc1ncc(CN2CCC(c3ccnn3C)CC2)n1-c1ccccc1"
reported_endpoint = "cytotoxicity at 10 µM"
reported_measurement = 19.1

[[record]]
molecule = "COc1ccc(F)cc1-c1ccccc1CC1CNCCNC1=O (configuration not stated)"
reported_endpoint = "cytotoxicity at 10 µM"
reported_measurement = 3.48

[[record]]
molecule = "O[C@H]1CCN(CCCOc2ccccc2F)C[C@@]12CCCO2"
reported_endpoint = "cytotoxicity at 10 µM"
reported_measurement = 1.14

[[record]]
molecule = "O=C(NCCCN1CCOCC1)Nc1cnc2cc(Cl)ccc2c1O"
reported_endpoint = "cytotoxicity at 10 µM"
reported_measurement = 1.29


----------
# Experimental Details: Toxicity liver stage against HepG2, at 10uM
# Assay type: cell-based
# Set-up: test concentration 10 uM, cell line HepG2-A16-CD81EGFP
# Details: human, HepG2-A16-CD81EGFP cells; read-out: INHIBITION
Known cytotoxicity at 10 µM of a selection of compounds
Reported Endpoint: cytotoxicity at 10 µM (%)

[[record]]
compound = "Cc1c[nH]c(C(=O)N2CCn3nc(C(=O)NC4CC4)cc3C2)n1"
reported_measurement = -2.66

[[record]]
compound = "Cn1ccnc1CN1CCC2(CC1)CN(CC1CC1)C(=O)CO2"
reported_measurement = 1.7

[[record]]
compound = "Cc1cncc(C2CCCN(C(=O)c3scnc3C)C2)n1 (stereo unspecified)"
reported_measurement = -2.19

[[record]]
compound = "c1ccc(-c2nc(CNCC3CCCN3c3cccnn3)co2)cc1 (stereo unspecified)"
reported_measurement = -12.7

[[record]]
compound = "CCc1noc(C(C)N2CCN(Cc3ncc(C(C)(C)C)o3)CC2)n1 (stereo unspecified)"
reported_measurement = -6.62

[[record]]
compound = "O=C(c1ccccn1)N1C[C@H]2CC[C@@H](C1)N(C(=O)CCC1CCCC1)C2"
reported_measurement = 3.07

[[record]]
compound = "O=C(c1cnccn1)N1C[C@@H](OCc2cccnc2)[C@H]2OCCC[C@H]21"
reported_measurement = -2.78

[[record]]
compound = "CCN(CC)c1ncc(CNC2CCc3nc(C)nn3C2)s1 (stereo unspecified)"
reported_measurement = 2.78

[[record]]
compound = "Cc1ccc(NC(=O)N2CCCC(O)(CO)CC2)cc1Cl (stereo unspecified)"
reported_measurement = 1.96

[[record]]
compound = "CC(C)c1nnc(CNCC2CCCN2c2cccnn2)o1 (stereo unspecified)"
reported_measurement = 1.05

[[record]]
compound = "CN(CC(F)(F)F)C(=O)CNC(=O)Cc1cccc(O)c1"
reported_measurement = 5.37


----------
# Experimental Details: Toxicity liver stage against HepG2, at 10uM
# Format: cell-based
# Parameters: test concentration 10 uM, cell line HepG2-A16-CD81EGFP
# Details: human, HepG2-A16-CD81EGFP cells; read-out: INHIBITION
Known cytotoxicity at 10 µM of a selection of compounds
Reported Endpoint: cytotoxicity at 10 µM (%)

[[record]]
compound = "Cc1cc(C)nc(Nc2cccc(C3CCCN(CCO)C3)n2)n1 (stereo unspecified)"
units_symbol = "%"
reported_measurement = -12.9

[[record]]
compound = "COc1ncccc1-c1cc(C(N)=O)ccn1"
units_symbol = "%"
reported_measurement = 7.81

[[record]]
compound = "Cc1noc(NCc2cn(C)nc2-c2cccnc2)n1"
units_symbol = "%"
reported_measurement = 6.87

[[record]]
compound = "CN(C)CCCC(=O)NC1CC(C)(C)Cc2nc(C(C)(C)C)ncc21 (stereo unspecified)"
units_symbol = "%"
reported_measurement = 15.2

[[record]]
compound = "O=C(NC1CCCC1)c1n[nH]c2c1CNCC2"
units_symbol = "%"
reported_measurement = 0.582

[[record]]
compound = "O=C(Cc1ccc(F)cc1F)NCC(=O)Nc1ccccn1"
units_symbol = "%"
reported_measurement = 3.24

